Would you kindly list pKd for each of these sequences?
System tested: MAGI1-3/6 PDZ domain (Mus musculus, UniProt Q6RHR9)
Construct: The cDNA encoding residues 448–572 and 613–752 of mouse MAGI-1 (UniProt acc.: Q6RHR9-1); made in house; host or cells: E. coli BL21 DE3
Sequence (Q6RHR9 613-752): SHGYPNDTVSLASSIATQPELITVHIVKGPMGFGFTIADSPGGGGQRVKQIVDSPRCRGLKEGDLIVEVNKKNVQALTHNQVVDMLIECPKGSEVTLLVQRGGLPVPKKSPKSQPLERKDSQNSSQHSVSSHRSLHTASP
Method summary: SPR binding of MBP-PDZ analyte to immobilised biotinylated peptides
Test context: SPR Biacore 2000, 25 C, steady state, 1:1 binding isotherm, MBP-PDZ 0-30 µM; to be considered with caution; read-out: tentative KD
Ends that are not written are not given here.
In plain terms, pKd is the concentration in mol/L turned into minus its base-10 logarithm.

# pKd of SGGKRKETLV [NET1_10] = 4.43

# pKd of PMESGICTIV [TTC24_10] = 4.43
